B1: library; numbered along this chain (parent)
chain: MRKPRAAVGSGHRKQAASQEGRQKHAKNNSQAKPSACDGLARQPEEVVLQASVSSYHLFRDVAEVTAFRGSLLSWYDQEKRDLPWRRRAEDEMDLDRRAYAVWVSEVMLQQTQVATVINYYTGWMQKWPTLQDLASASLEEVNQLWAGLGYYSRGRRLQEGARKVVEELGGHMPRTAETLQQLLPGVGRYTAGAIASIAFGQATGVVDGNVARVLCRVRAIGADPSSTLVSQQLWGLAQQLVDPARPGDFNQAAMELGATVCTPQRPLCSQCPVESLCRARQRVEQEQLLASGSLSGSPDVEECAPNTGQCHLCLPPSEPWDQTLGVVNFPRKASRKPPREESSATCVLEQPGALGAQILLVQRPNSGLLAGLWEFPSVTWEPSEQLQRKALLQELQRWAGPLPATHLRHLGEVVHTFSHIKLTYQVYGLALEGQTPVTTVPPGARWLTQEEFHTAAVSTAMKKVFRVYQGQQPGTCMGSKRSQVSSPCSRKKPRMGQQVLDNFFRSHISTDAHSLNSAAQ

Variants of: B1
Assay: 8OG:A repair function score (normalized; synonymous = 0, nonsense = -1) (normalized log-likelihood score); higher = more repair activity (WT-like);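 note: cells sorted at 72 h after reporter transfection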
Settings: with 8OG:A DNA repair reporter (GFP) in HEK-293 MUTYH KO cells
Please respond with reported 8OG:A repair function score for every item in the list.
No unit in the answer, please; the number alone is enough.

Which value of 8OG:A repair function score has been reported for "E79H" in the records?
-0.0574

Entry under review: "L396F" . Reported 8OG:A repair function score?
-0.431

Param item = "R389E" ; retrieve measured 8OG:A repair function score.
-0.116

Look up 8OG:A repair function score for this variant: "Q78G"
-0.0331

Which 8OG:A repair function score reading was recorded for the variant "V48C" ?
0.0424

Reported 8OG:A repair function score for "R446Q" : what is it?
-0.119

Field request: 8OG:A repair function score | item: "C272P"
-1.26

Given the variant "Y56P" , what is its reported 8OG:A repair function score?
-0.0566

Fill blank: measured 8OG:A repair function score of the variant "G356M" is ____.
-0.207

# input variant: "E395Y" ; wanted: its 8OG:A repair function score
-0.0134

Name the recorded 8OG:A repair function score for "I118W" .
-0.13
